Test system: HCT-15
ASSAY_METHOD_TEXT: NCI-60 SRB screen, colon cancer
Format: cell-based, human
CONDITIONS: Homo sapiens; HCT-15; five dose 0.01–100 µM, 48 h; read-out: GI50
Response field label takes 1 when GI50 is strictly below 40 nM and 0 in all other cases.

- COMPOUND: "C=CCC1C(=O)N(c2cc(OC)c(OC)c(OC)c2)C1c1ccc(OC)c(O)c1 (stereo not drawn) [10p]"
  SUBJECT_OF_TEST: "HCT-15"
  ASSIGNED_CLASS: 1
- COMPOUND: "C=C(C)C1C(=O)N(c2cc(OC)c(OC)c(OC)c2)C1c1ccc(OC)c(OP(=O)(O)O)c1 (stereo not drawn) [15a]"
  SUBJECT_OF_TEST: "HCT-15"
  ASSIGNED_CLASS: 0
- COMPOUND: "C=C(C)C1C(=O)N(c2cc(OC)c(OC)c(OC)c2)C1c1ccc(OC)c(O)c1 (stereo not drawn)"
  SUBJECT_OF_TEST: "HCT-15"
  ASSIGNED_CLASS: 1
- COMPOUND: "COc1ccc(C2C(C(C)C)C(=O)N2c2cc(OC)c(OC)c(OC)c2)cc1OP(=O)(O)O (stereo not drawn) [15b]"
  SUBJECT_OF_TEST: "HCT-15"
  ASSIGNED_CLASS: 0
- COMPOUND: "C=C(C)C1C(=O)N(c2cc(OC)c(OC)c(OC)c2)C1c1ccc(OC)c(N)c1 (stereo not drawn)"
  SUBJECT_OF_TEST: "HCT-15"
  ASSIGNED_CLASS: 0

* * *

System: MCF-7 human breast cancer cells
ASSAY_METHOD_TEXT: cells
CONDITIONS: MCF7, 72 h, read-out: Antiproliferative Activity IC50, MCF-7, 72 h, eight concentrations 1–50 μM, mean ± SEM, Table 2
Response field label takes 1 when IC50 is strictly below 6000 nM and -1 in all other cases.

- COMPOUND: "C=C(C)C1C(=O)N(c2cc(OC)c(OC)c(OC)c2)C1c1ccccc1 (stereo not drawn)"
  ASSIGNED_CLASS: 1
- COMPOUND: "C=C(C)C1C(=O)N(c2ccc(OC)cc2)C1c1ccccc1 (stereo not drawn)"
  ASSIGNED_CLASS: 1
- COMPOUND: "COc1ccc(/C=C\\c2cc(OC)c(OC)c(OC)c2)cc1O [CA-4, Combretastatin A-4, reference compound]"
  ASSIGNED_CLASS: 1
- COMPOUND: "C=C(C)C1C(=O)N(c2cc(OC)c(OC)c(OC)c2)C1c1cccc2ccccc12 (stereo not drawn)"
  ASSIGNED_CLASS: -1
- COMPOUND: "C=C(C)C1C(=O)N(c2cc(OC)c(OC)c(OC)c2)C1c1ccc(SC)cc1 (stereo not drawn)"
  ASSIGNED_CLASS: -1
- COMPOUND: "C=C(C)C1C(=O)N(c2cc(OC)c(OC)c(OC)c2)C1c1ccc(F)cc1 (stereo not drawn)"
  ASSIGNED_CLASS: 1
- COMPOUND: "C=C(C)C1C(=O)N(c2cc(OC)c(OC)c(OC)c2)C1c1ccc(Cl)cc1 (stereo not drawn)"
  ASSIGNED_CLASS: 1
- COMPOUND: "C=C(C)C1C(=O)N(c2ccc(OC)cc2)C1c1cc(OC)c(OC)c(OC)c1 (stereo not drawn)"
  ASSIGNED_CLASS: 1

* * *

Tested on: MDA-MB-231/ATCC
ASSAY_METHOD_TEXT: NCI-60 SRB screen, breast cancer
Type: cell-based, human
CONDITIONS: Homo sapiens; MDA-MB-231/ATCC; five dose 0.01–100 µM, 48 h; read-out: GI50

- MOLECULE: "C=C(C)C1C(=O)N(c2cc(OC)c(OC)c(OC)c2)C1c1ccc(OC)cc1 (stereo not drawn)"
  GI50 (nM): 32.2
- MOLECULE: "C=C(C)C1C(=O)N(c2cc(OC)c(OC)c(OC)c2)C1c1ccc(OC)c(N)c1 (stereo not drawn)"
  GI50 (nM): 31.5
- MOLECULE: "C=C(C)C1C(=O)N(c2cc(OC)c(OC)c(OC)c2)C1c1ccc(OC)c(OP(=O)(O)O)c1 (stereo not drawn) [15a]"
  GI50 (nM): 53.4
- MOLECULE: "C=CCC1C(=O)N(c2cc(OC)c(OC)c(OC)c2)C1c1ccc(OC)c(O)c1 (stereo not drawn) [10p]"
  GI50 (nM): 24
- MOLECULE: "C=C(C)C1C(=O)N(c2cc(OC)c(OC)c(OC)c2)C1c1ccc(OC)c(O)c1 (stereo not drawn)"
  GI50 (nM): 16.8
- MOLECULE: "COc1ccc(C2C(C(C)C)C(=O)N2c2cc(OC)c(OC)c(OC)c2)cc1OP(=O)(O)O (stereo not drawn) [15b]"
  GI50 (nM): 215

* * *

System: MDA-MB-231 human breast cancer cells
ASSAY_METHOD_TEXT: Alamar Blue cell viability (antiproliferative) assay
Assay type: cell-based
CONDITIONS: 72 h, eight concentrations 0.001-50 μM, mean ± SEM, read-out: Antiproliferative Activity IC50
Listed below: IC50 values for each entry.

- COMPOUND: "COc1ccc(/C=C\\c2cc(OC)c(OC)c(OC)c2)cc1O [CA-4, Combretastatin A-4, reference compound]"
  VALUE_UNIT: "nM"
  IC50: 43
- COMPOUND: "C=C(C)C1C(=O)N(c2cc(OC)c(OC)c(OC)c2)C1c1ccc(C)cc1 (stereo not drawn) [9g]"
  VALUE_UNIT: "nM"
  IC50: 246
- COMPOUND: "C=CC[C@@H]1C(=O)N(c2cc(OC)c(OC)c(OC)c2)[C@H]1c1ccc(C)cc1 (relative stereo) [10g]"
  VALUE_UNIT: "nM"
  IC50: 377
- COMPOUND: "C=C(C)C1C(=O)N(c2cc(OC)c(OC)c(OC)c2)C1c1ccc(OCC)cc1 (stereo not drawn) [9i]"
  VALUE_UNIT: "nM"
  IC50: 171
- COMPOUND: "C=CCC1C(=O)N(c2cc(OC)c(OC)c(OC)c2)C1c1cccc2ccccc12 (stereo not drawn) [10m]"
  VALUE_UNIT: "nM"
  IC50: 656
- COMPOUND: "C=CC=CC1C(=O)N(c2cc(OC)c(OC)c(OC)c2)C1c1ccc(C)cc1 (stereo not drawn) [11g]"
  VALUE_UNIT: "nM"
  IC50: 160
- COMPOUND: "C=CCC1C(=O)N(c2cc(OC)c(OC)c(OC)c2)C1c1ccc(OCc2ccccc2)cc1 (stereo not drawn) [10l]"
  VALUE_UNIT: "nM"
  IC50: 486
- COMPOUND: "C=C(C)C1C(=O)N(c2cc(OC)c(OC)c(OC)c2)C1c1ccc2ccccc2c1 (stereo not drawn) [9n]"
  VALUE_UNIT: "nM"
  IC50: 529
- COMPOUND: "C=C(C)C1C(=O)N(c2cc(OC)c(OC)c(OC)c2)C1c1ccc(OC)c(OP(=O)(O)O)c1 (stereo not drawn) [15a]"
  VALUE_UNIT: "nM"
  IC50: 32

Recorded values, source paper PMC10385824.
